Attribution: the RNAGym collection of RNA variant scans (doi:10.1073/pnas.2313332121)

B1: TPR t1 (parent)
chain: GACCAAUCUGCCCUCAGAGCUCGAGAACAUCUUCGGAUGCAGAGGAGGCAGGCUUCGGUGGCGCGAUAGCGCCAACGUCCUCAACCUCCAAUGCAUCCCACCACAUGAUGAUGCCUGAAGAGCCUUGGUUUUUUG

# Variants of: B1
# Assay method text: polymerase ribozyme fitness, log enrichment relative to wild type (log ratio); higher = more active; in vitro selection for triplet polymerase activity
Label MET when polymerase ribozyme fitness (log ratio) is at or above -2; otherwise label NOT MET.

// below: answered variants
[[record]]
item_sequence = "GACCAAUCUGCCCUCAGAGCUCGAGAACAUCUUCGGAUGCAGAGGAGGCAGGCUUGGGUGGCGCGAUAGCGCCAACGUCCUCAACCUCGAAUGCAUCCCACCACAUGAUGAUGCCUGAAGAGCCUUGGUUUUUUG [C56G C89G]"
group = "NOT MET"

[[record]]
item_sequence = "GACCAAACUGCCCUCAGAGCCCGAGAACAUCUUCGGAUGCAGAGGAGGCAGGCUUCGGUGGCGCGAUAGCUCCAACGUCCUCAACCUCCGAUGCAUCCCACCACAUGAUGAUGCCUGAAGAGCCUUGGUUUUUUG [U7A U21C G71U A90G]"
group = "MET"

[[record]]
item_sequence = "GACCAAUCUGCCCUUAGAGCUCGAGAACAUCUUCGGAUGCAGAGGAGGCAGGCUUCGGUGGCGCGAUAGCUCCAACGUCCUCAACCUCCAAUGCAUCCCAUCACAUGAUGAUGCCUGAAGAGCCUUGGUUUUUUG [C15U G71U C101U]"
group = "MET"

[[record]]
item_sequence = "GACCAAUCUGUCCUCAGAGCUCGAGAACAUCUUCGGAUGCAGAGGAGGCAGGCUUCGGUGGCGCGAUAGAGCCAACGUCCUCAACCUCCAAUGCAUCCCACCACAUGAUGAUGCCUGAAGAGCCUUGGUUUUUUG [C11U C70A]"
group = "MET"

[[record]]
item_sequence = "GACCAAUCUGCCCUCAGAGCUCGAGAACAUCUUCGGAUGCAGAGGAGGCAGGCUUCGGUGGCGCGAUGGCGCCAACGUCCUCAACCUCCAAUGCAUCCCAGCACAUGAUGAUGCCUGAAGAGCCUUGGUUUUUUG [A68G C101G]"
group = "NOT MET"

[[record]]
item_sequence = "GACCAAGCUGCCCUCAGAGCUCGAGAACAUCUUCGGAUGUCGAGGAGGCAGGCUUCGGUGGCGCGAUAGCUCCAACGUCCUCAACCUCCAAUGCAUCCCACCACAUGAUGAUACCUGAAGAGCCUUGGUUUUUUG [U7G C40U A41C G71U G113A]"
group = "NOT MET"


Lookup: Check this variant for polymerase ribozyme fitness (log ratio) at or above -2: GACCAAUCUGCCCUCAGAGCUCGAGAACAUCUUCGGUUGCAGAGGAGGCAGGCUUGGGUGGCGCGAUAGCGCCAACGUCCUCAACCUCCAAUGCAUCCCACCACAUGAUGAUGACUGAAGAGCCUUGGUUUUUUG [A37U C56G C114A]
Found: MET

Lookup: Check this variant for polymerase ribozyme fitness (log ratio) at or above -2: GACGAAUCUGCCCUCAGAGCUCGAGAACAUCUUCGGAUGCAGAGGAGGCAGGCUUCGGUGGCGCGAUAGCGCCAACGUCCUCAACCUCCGAUGCAUCCCACCAUAUGAUGAUGCCUGAAGAGCCUUGGUUUUUUG [C4G A90G C104U]
Found: MET

Lookup: Check this variant for polymerase ribozyme fitness (log ratio) at or above -2: GACCAAUCUGCCCUCAGAGAUCGAGAACAUCUUCGGGUGCAGAGGAGGAAGGCUUCGGUGGCACGAUAGCGCCAACGUCCUCAACCUCCAAUGCAUCCCACCACAUGAUGAUGCCUGAAGAGCCUUGGUUUUUUG [C20A A37G C49A G63A]
Found: NOT MET

Lookup: Check this variant for polymerase ribozyme fitness (log ratio) at or above -2: GACCAAUUUGCCCUCAGAGCUCGAGAACAUCUUCGGGUGCAGAGGAGGCAGGCUUUGGUGGCGCGAUAGCGCGAACGUCCUCAACCUCCAAUGCAUCCCACCACAUGAUUAUGCCUGAUGAGCCUUGGUUUUUUG [C8U A37G C56U C73G G110U A119U]
Found: NOT MET

Lookup: Check this variant for polymerase ribozyme fitness (log ratio) at or above -2: GACCAAUCUGCUCUCAGAUCUCGAGAACAUCUUCGGAUGCAGAGGAGGCAGGCUUCGGUGGCGCGAUAGCGCCAACGUCCUCAACCUCCAAUGCAUCCCACCACAUGAUGAUGCCUGAAGAGCCUUGGUUUUUUG [C12U G19U]
Found: NOT MET
